// provenance: PubChem BioAssay (NCI)

System: SK-OV-3 ovarian
Assay: NCI tumour cell line growth inhibition, 48 h
measurement.label: TGI

// solved cases for TGI follow
{"compound": "CC(C)C[C@H](NC(=O)CCn1ccc2ccccc2c1=O)B(O)O", "TGI": "81.3 µM"}
{"compound": "CN=C1OC2(c3ccccc3)C3=C(OC(=NC)N2C)C(=O)OC3(c2ccccc2)N1C (stereo not given)", "TGI": "> 100 µM"}

// next entry
What does the record list as TGI for O=C1c2ccccc2N2OC3(N4CCCC4)CCCCC3C12c1ccccc1 (stereo not given) ?
> 100 µM

###

Tested on: MDA-MB-231 breast
Assay: NCI tumour cell line growth inhibition, 48 h
measurement.label: TGI

{"compound": "CCc1c(C)nc2sc3c(N)ncnc3c2c1C", "measurement.label": "TGI", "result.value": "> 25 µM"}
{"compound": "O=C(O)c1ccccc1N=Nc1c(O)c(S(=O)(=O)O)cc2cc(S(=O)(=O)O)ccc12", "measurement.label": "TGI", "result.value": "> 100 µM"}
{"compound": "COc1ccc2c(-c3ccnc(Nc4cccc(OC(F)(F)F)c4)n3)cnn2n1", "measurement.label": "TGI", "result.value": "> 25 µM"}
{"compound": "Oc1cc(-n2cccn2)c(O)cc1-n1cccn1", "measurement.label": "TGI", "result.value": "50.5 µM"}
{"compound": "Oc1cccc2c1NCCC2", "measurement.label": "TGI", "result.value": "> 100 µM"}
{"compound": "CN(C)CCNC(=O)c1cccc2c(NC(CCC(N)=O)C(=O)O)c3ccccc3nc12 (configuration not stated)", "measurement.label": "TGI", "result.value": "24.7 µM"}
{"compound": "CCCCNc1nc(NC2OCC(OC(C)=O)C(OC(C)=O)C2OC(C)=O)c(N=O)c(=O)n1C (configuration not stated)", "measurement.label": "TGI", "result.value": "> 10 µM"}
{"compound": "CC[C@@]1(O)C(=O)OCc2c1cc1n(c2=O)Cc2c-1nc1ccccc1c2/C=N\\NC(=O)C(N)CCSC (some centres not stated)", "measurement.label": "TGI", "result.value": "> 100 µM"}
{"compound": "CCN(CC)c1nnc(CCCCCCCCc2nnc(N(CC)CC)o2)o1", "measurement.label": "TGI", "result.value": "> 100 µM"}
{"compound": "COc1cc2ncc3c(nc4sccn43)c2cc1OC", "measurement.label": "TGI", "result.value": "78.3 µM"}

What does the record list as TGI for CCCn1c(=O)c(N2CCN(c3ccccc3)CC2)nc2sc3ccccc3c21 ?
> 100 µM

What does the record list as TGI for Nc1nc(N)c(CCCCc2ccccc2)c(N)n1 ?
> 100 µM

What does the record list as TGI for CC(C)(C)NC(=O)CCC1C(C(=O)NC(C)(C)C)C2(Cl)C(Cl)=C(Cl)C1(Cl)C2(Cl)Cl (configuration not stated) ?
> 100 µM

What does the record list as TGI for C[CH2][Hg][S]c1ccccc1C(=O)O ?
2.58 µM

What does the record list as TGI for c1ccc(CC2COC(c3cccs3)=N2)cc1 (configuration not stated) ?
> 100 µM

What does the record list as TGI for O=Nc1c(-c2c(O)[nH]c3ncccc23)[nH]c2ccccc12 ?
> 100 µM

What does the record list as TGI for COc1ccc(CNc2cc(=O)n(C)c(=O)[nH]2)cc1 ?
> 100 µM

What does the record list as TGI for Cc1ccncc1C(N)=O ?
> 100 µM

What does the record list as TGI for CC(=O)O[C@H]1CC[C@@]2(C)C(=CC[C@@H]3[C@@H]2CC[C@]2(C)c4nc(Cl)ccc4C[C@@H]32)C1 ?
> 100 µM
